# experimental.system: human σ1 receptor and human μ-opioid receptor
# assay.overview: Human σ1 receptor radioligand assay and human μ-opioid receptor radioligand assay (μ and σ1 dual binding)
pKi: −log10 of the molar value.

compound	experimental.system	pKi
CN1CCc2ccccc2C12CCN(CC(O)c1ccncc1F)CC2 (stereo not drawn) [Example 113]	human σ1 receptor and human μ-opioid receptor	> 6.30
CS(=O)(=O)N1CCc2ccccc2C12CCN(CCc1ccccc1)CC2 [Example 53]	human σ1 receptor and human μ-opioid receptor	> 7.00
CN1CCc2ccccc2C12CCN(CC(=O)c1ccccc1)CC2 [Example 69]	human σ1 receptor and human μ-opioid receptor	> 6.30
CN(C)C(=O)CCN1CCC2(CC1)c1ccccc1CCN2C [Example 68]	human σ1 receptor and human μ-opioid receptor	> 6.30
CN1CCc2ccccc2C12CCN(CC(=O)N1CCC(C(F)(F)F)CC1)CC2 [Example 91]	human σ1 receptor and human μ-opioid receptor	> 6.30
FC(F)(F)CN1CCc2ccccc2C12CCN(CCc1cccnc1)CC2 [Example 137]	human σ1 receptor and human μ-opioid receptor	> 6.30
CCN1CCc2ccccc2C12CCN(CC(=O)N1CCC(F)(F)CC1)CC2 [Example 145]	human σ1 receptor and human μ-opioid receptor	> 6.30
OCCN1CCc2ccccc2C12CCN(CCc1ccncc1F)CC2 [Example 130]	human σ1 receptor and human μ-opioid receptor	> 6.30
FC(F)(F)CN1CCc2ccccc2C12CCN(CCc1ccccc1)CC2 [Example 133]	human σ1 receptor and human μ-opioid receptor	> 7.00

###

# experimental.system: human σ1 receptor and human μ-opioid receptor
# assay.overview: Human σ1 receptor radioligand assay and human μ-opioid receptor radioligand assay (μ and σ1 dual binding)

compound	Ki
CC(=O)N1CCc2ccccc2C12CCN(CCOC(C)C)CC2 [Example 11]	< 500 nM
CCN1CCc2ccccc2C12CCN(CC(=O)N1CCOCC1)CC2 [Example 147]	< 500 nM
CCN1CCc2ccccc2C12CCN(CCc1ccccc1)CC2 [Example 63]	< 100 nM
CN1CCc2ccccc2C12CCN(CC(O)c1ccncc1)CC2 (centres unmarked) [Example 98]	< 500 nM
CN1CCc2ccccc2C12CCN(CCc1ccccn1)CC2 [Example 75]	< 500 nM

###

Consider the following compounds and their measured Ki readings.
# experimental.system: human σ1 receptor and human μ-opioid receptor
# assay.overview: Human σ1 receptor radioligand assay and human μ-opioid receptor radioligand assay (μ and σ1 dual binding)
parameter: Ki

compound	observed.value
CN1CCc2ccccc2C12CCN(CCc1cccc(NS(C)(=O)=O)c1)CC2	< 100 nM
CN1CCc2ccccc2C12CCN(C[C@H](O)c1ccncc1)CC2	< 500 nM
CN1CCc2ccccc2C12CCN(CC(O)c1ccccc1)CC2 (stereo not drawn)	< 500 nM
CN1CCc2ccccc2C12CCN(CCc1ccccc1)CC2	< 100 nM
CCN(C(=O)CN1CCC2(CC1)c1ccccc1CCN2C)C1CC1	< 500 nM
CN(CC1CC1)C(=O)CN1CCC2(CC1)c1ccccc1CCN2C	< 500 nM
CCN(CC1CC1)C(=O)CN1CCC2(CC1)c1ccccc1CCN2C	< 500 nM
CCN1CCc2ccccc2C12CCN(CC(=O)N1CCC(F)CC1)CC2	< 500 nM
CN1CCc2ccccc2C12CCN(CC(=O)N1CCC3(CC1)CC3)CC2	< 100 nM
CN1CCc2cc(O)ccc2C12CCN(CCc1ccccc1)CC2	< 100 nM
CN1CCc2ccccc2C12CCN(CCc1ccncc1)CC2	< 500 nM
CN1CCc2ccccc2C12CCN(CCc1cccc(N)c1)CC2	< 100 nM
CN1CCc2ccccc2C12CCN(CC(=O)N1CCOCC1)CC2	< 500 nM
CN1CCc2ccccc2C12CCN(CCN1CCCCC1)CC2	< 500 nM
FC(F)(F)CN1CCc2ccccc2C12CCN(CCc1ccncc1)CC2	< 500 nM
CC(=O)N1CCc2ccccc2C12CCN(CC1CCCCC1)CC2	< 500 nM
CN1CCc2ccccc2C12CCN(C[C@H](O)c1ccncc1F)CC2	< 500 nM
OCCN1CCc2ccccc2C12CCN(CCc1cccnc1)CC2	< 500 nM
OCCN1CCc2ccccc2C12CCN(CCc1cncc(C(F)(F)F)c1)CC2	< 500 nM
CN1CCc2ccccc2C12CCN(C[C@@H](O)c1ccncc1F)CC2	< 500 nM
CN1CCc2ccccc2C12CCN(CC(=O)N1CCC(F)(F)CC1)CC2	< 500 nM
CN1CCc2ccccc2C12CCN(CC1CCCCC1)CC2	< 500 nM
CN1CCc2ccccc2C12CCN(C[C@@H](O)c1ccncc1)CC2	< 500 nM
CN1Cc2ccccc2C12CCN(CCc1ccccc1)CC2	< 500 nM
CN(Cc1ccccc1)C(=O)CN1CCC2(CC1)c1ccccc1CCN2C	< 100 nM
OCCN1CCc2ccccc2C12CCN(CCc1cncc(F)c1)CC2	< 500 nM
CCN1CCc2ccccc2C12CCN(CC(=O)N1CCCC(F)(F)C1)CC2	< 500 nM
CCN(C(=O)CN1CCC2(CC1)c1ccccc1CCN2CC)C1CC1	< 500 nM
COc1ccc2c(c1)CCN(C)C21CCN(CCc2ccccc2)CC1	< 100 nM
COCCN1CCc2ccccc2C12CCN(CCc1ccccc1)CC2	< 500 nM
CC(C)OCCN1CCC2(CC1)c1ccccc1CCN2C	< 500 nM
CCN(CC)C(=O)CN1CCC2(CC1)c1ccccc1CCN2CC	< 500 nM
CN1CCc2ccccc2C12CCN(Cc1ccccn1)CC2	< 500 nM
CN1CCc2ccccc2C12CCN(Cc1cccnc1)CC2	< 500 nM
CN1CCc2ccccc2C12CCN(CCc1cccnc1)CC2	< 500 nM
CC(=O)Nc1cccc(CCN2CCC3(CC2)c2ccccc2CCN3C)c1	< 500 nM
CCN(C(=O)CN1CCC2(CC1)c1ccccc1CCN2C)C(C)C	< 500 nM
CC(C)N(C)C(=O)CN1CCC2(CC1)c1ccccc1CCN2C	< 500 nM
CN1CCc2ccccc2C12CCN(CC(=O)N1CCCCC1)CC2	< 500 nM
